Each entry below lists one item and its recorded TGI value.
- System: SNB-19 CNS
- PROTOCOL TEXT: NCI tumour cell line growth inhibition, 48 h

Some solved cases for reference:
| COMPOUND | TGI |
| --- | --- |
| CC1CCCc2c1n[nH]c2CC1CC(=O)NC(=O)C1 (stereo not given) | > 100 µM |
| COC(=O)c1ccc(NCC2=CC(=O)C=CC2=O)cc1O | 48.3 µM |
| CC1=C(O)C(=O)C2C(=O)C1C(C)C2c1ccccc1 (stereo not given) | > 100 µM |
| C=C(C)[C@@H]1C/C=C(/COC(C)=O)CC[C@H]2O[C@@]2(C)CC/C=C(\C)CC1 | > 100 µM |

Ask: Look at this compound and give its reported TGI. Cc1ccc(NC(=O)CCc2nnc3s/c(=C\C=C\c4ccccc4)c(=O)n23)cc1
Reply: > 100 µM

Ask: Another compound to check: COC1CC(O[C@H]2CC[C@@]3(C)C(=CCC4(O)C3CCC35C(=O)OC6(C)O[C@@]43CCC65)C2)OC(C)C1O (stereo not given in full)
Reply: > 100 µM

Ask: Another compound to check: CCC(CO)Nc1nc(NCc2ccccc2)c2n[nH]c(C(C)C)c2n1 (stereo not given)
Reply: 30.5 µM

Ask: Another compound to check: C[C@]1(c2nc3c(C(N)=O)cccc3[nH]2)CCCN1
Reply: > 100 µM

Ask: Another compound to check: OC(c1cc2ccccc2[nH]1)C(O)(c1cc2ccccc2[nH]1)c1cc2ccccc2[nH]1 (stereo not given)
Reply: > 245 µM

Ask: Another compound to check: Oc1cccc2cccnc12
Reply: > 100 µM

Origin of the recorded values: PubChem BioAssay (NCI)
